target: hCA XII (Homo sapiens, UniProt O43570); assay: stopped flow CO2 hydrase assay, hCA XII; assay type: biochemical; settings: KI hCA II / KI hCA XII
Sequence (O43570 25-354): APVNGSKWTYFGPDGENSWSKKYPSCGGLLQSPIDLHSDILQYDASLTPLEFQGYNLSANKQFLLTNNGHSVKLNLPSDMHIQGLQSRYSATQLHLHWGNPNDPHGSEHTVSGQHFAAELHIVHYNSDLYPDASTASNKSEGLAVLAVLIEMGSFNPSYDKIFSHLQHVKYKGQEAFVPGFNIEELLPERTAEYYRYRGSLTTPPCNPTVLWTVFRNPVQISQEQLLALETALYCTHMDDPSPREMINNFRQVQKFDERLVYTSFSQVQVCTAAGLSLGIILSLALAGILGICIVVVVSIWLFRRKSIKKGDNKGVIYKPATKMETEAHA
measureName: Selectivity ratio II/XII

compoundStructureString: NS(=O)(=O)c1ccc(NN=C2C(=O)N(CC(=O)Nc3ccc(Cl)cc3)c3ccccc32)cc1
result: 0.953
--
compoundStructureString: NS(=O)(=O)c1ccc(NN=C2C(=O)N(CC(=O)Nc3ccc(Br)cc3)c3ccccc32)cc1
result: 0.092
--
compoundStructureString: NS(=O)(=O)c1ccc(NCC(=O)NN=C2C(=O)N(CC(=O)Nc3ccc(Cl)cc3)c3ccccc32)cc1
result: 0.909
--
compoundStructureString: Cc1ccc(NC(=O)CN2C(=O)C(=NNc3ccc(S(N)(=O)=O)cc3)c3ccccc32)cc1
result: 0.112
